Measured pIC50 by item
- tgt: HIV-1 RT (Human immunodeficiency virus type 1 group M subtype B)
- test.summary: HIV-1 reverse transcriptase assay with homopolymeric template/primers
- Assay type: biochemical
- condition.set: IC50 HIV-1 RT Poly rA.dT ([3H]dTTP), Table 7; Poly rA.dT, [3H]dTTP
Lab note — pIC50 values are minus log10 of concentrations in M.

# example entries with known answers
>>> print(df.to_string())
                                   compound  number
0  Cc1cn(C/C=C\COC(C(=O)O)P(=O)(O)O)c(=O)[nH]c1=O (centres unmarked)    3.63
1  Nc1ncnc2c1ncn2C/C=C\COC(C(=O)O)P(=O)(O)O (centres unmarked)    3.39

GET /values?readout=pIC50&item= Nc1ccn(C/C=C\COC(C(=O)O)P(=O)(O)O)c(=O)n1 (centres unmarked)
3.57
